System: K4 kissing-loop RNA reporter
assay procedure: apparent KD of K4 kissing-loop reporter; higher = weaker reporter binding
measurement parameters: Eterna round: R107; input ligand: none
Rule: apparent KD of K4 kissing-loop reporter of 300 nM or more gives YES; anything lower gives NO.

{"query sequence": "CGACUAGUCUUGCAACCCUAGUCGAUAUGCUAGGAUAUCAGGAAACUGAGAAGGAGUUUACUUGCAGUGAUGUUGCAAGAAUAAU [KL-SSFMN-A10]", "category": "NO"}
{"query sequence": "UGUGUUUACCUGACUCAGUGAUGUUGAGAAGGAGCGUGCGAAAGCACAGGUAGGUCGCUCAACCUAAAAUUCAGGUGAGCACUAA [#SwitchBubble 11 #K4Early]", "category": "NO"}
{"query sequence": "UGGGCUGCCUGAGGAUAUAGAGACGAGUGAUGUUCGUGGAUAAGAGCCAGUGAUGUUGGGUUAUUUCUAGAAGGCGGGCGAACUU [Exclusion FMN B GF8]", "category": "NO"}
{"query sequence": "CGAUACGGAAAUACGUGUCUCUAUUCAGAAGGAGCGUGGUAGUACACAGGUAGGUCGCUGAAUUUUAAACUAGUGAUGUUAGUCU [JR_SSArginiA_Sub005]", "category": "YES"}
{"query sequence": "GGAUCCACCAGUGAUGUUGGAAAAUACUCCAAGGAUAUGACGAAAGUCAGAAGGUGGUAGACUGGACAAAGUCCAGUCGGAUCCA [FmnA 27 #SwitchBubble #K4Early]", "category": "YES"}
{"query sequence": "UGUGAGCUGUCGACAAAAGUCGACUAAAACUAGGAUAUGACGAAAGUCAGAAGGAGUCAAUAAUGGAGUGAUGUUCCUGCUCACU [FmnA 9 U31+A55]", "category": "YES"}

----------
Tested on: MS2 coat protein
assay procedure: apparent KD of MS2 coat protein; designed switch direction (-1 OFF switch, 1 ON switch): 1; higher = weaker reporter binding
measurement parameters: input ligand: microRNA oligo, concentration not stated
Given measured apparent KD of MS2 coat protein, output MET if it is greater than or equal to 100 nM and NOT MET if not.

{"query sequence": "CAUCCCUCCACAGGAUAUCGACCAAUAAAACGGCGAGAAGGGUGGCCACAUGAGGAUCACCCAUGUGGAAUUGGAUGAACUACC [Atusmaceor] (Eterna round: R96, puzzle: Same State NG 1)", "tested target": "MS2 coat protein", "category": "MET"}
{"query sequence": "AGGCUCAGACGAGGAUAUGAUCAUGGCGCUUCGGCGCAUACAUGAGGAUCACCCAUGUAAAGUGAUCAGAAGGCGUCUGAGCCA [SSNG2/7-A1] (Eterna round: R96, puzzle: Same State NG 2)", "tested target": "MS2 coat protein", "category": "NOT MET"}
{"query sequence": "GGUGCCAAUAAAGCCUACAUGAGGAUCACCCAUGUAUGUAGGUAGGAUAUCGUUUGCAAAGCAAACGAGAAGGGCCUAGGCACC [Mat - Same State NG 3 - JL Mod - D58] (Eterna round: R96, puzzle: Same State NG 3)", "tested target": "MS2 coat protein", "category": "NOT MET"}
{"query sequence": "AAAAUGGGAUUUUACAUGAGGAUCACCCAUGUGGGUAUCACUGAGGAUAUGAGGAUCUUGAAAAAUCAGAAGGCAGAAUUUCAA [AK SSNG3-V2-21] (Eterna round: R96, puzzle: Same State NG 3)", "tested target": "MS2 coat protein", "category": "MET"}
{"query sequence": "AAGUAACAUGAGGAUCACCCAUGUGAGGUGAGCGUAGGAUAUCGAGGAGGAAGGGUGGAGCGAGAAGGACGAGAGG [JR_SS1_Sub099] (Eterna round: R96, puzzle: Same State 1)", "tested target": "MS2 coat protein", "category": "MET"}

----------
System: MS2 coat protein
assay procedure: apparent KD of MS2 coat protein; higher = weaker reporter binding
measurement parameters: Eterna round: R107; input ligand: arginine 13.2 mM
Catalogue of apparent KD of MS2 coat protein values

{"query sequence": "ACGUUCGCGGUAUCCAACCGGUUGUACAAACGAGGACCGGUACGGCCGCCACUCGUGAUUGUACAUGAGGAUCACCCAUGUGGCA [theeternabot_exclusion_MS2_Trp_A_28]", "apparent KD of MS2 coat protein, µM": 0.0187}
{"query sequence": "UUUGACGGCGAUCUGGGUUUACCAGAUCGGCGAGGACCGGUACGGCCGCCACUCGUGUUUCUUUGACAUGAGGAUCACCCAUGUA [whbob_SS_trypto A_f2]", "apparent KD of MS2 coat protein, µM": 0.0384}
{"query sequence": "UUUUAGCAUCGAAGGAGCGCUGGUGAAACUGACUAUGGAACAUGAGGAUCACCCAUGUGCUAGCAGGUAGGUCGCGAUGCUAUUU [SSAB NP+V+V2 #10]", "apparent KD of MS2 coat protein, µM": 0.0169}

----------
System: K4 kissing-loop RNA reporter;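 also: bound reporter read as fluorescence of individual clusters on recovered sequencing chips by microscopy, with normalized cluster intensities fitted with a binding model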
assay procedure: apparent KD of K4 kissing-loop reporter; higher = weaker reporter binding
measurement parameters: Eterna round: R107; input ligand: tryptophan 2.4 mM
readout type: apparent KD of K4 kissing-loop reporter (nM)

{"query sequence": "AAAAUAACCCAGUGAUGUUGGUAUACAGAUACCAGCGACGAAAGUCGCCCUUGGCAGCUGUGGACGUACAAAAUAAGUACGUCCU", "tested target": "K4 kissing-loop RNA reporter", "readout type": "apparent KD of K4 kissing-loop reporter", "units of measure": "nM", "measured result": 1010}
{"query sequence": "GGCGCAGUGAUGUUGCGGGCCGAGAGUGAUACCAGCCGUAUUUGUGGCCCUUGGCAGCGCAGAACCAGUGAUGUUGGUUACUUGG [Same State Theophylline A GF 22]", "tested target": "K4 kissing-loop RNA reporter", "readout type": "apparent KD of K4 kissing-loop reporter", "units of measure": "nM", "measured result": 421}
{"query sequence": "AAACAUCACUGGGAGUGAUGUUCUCAGUGACGAGGACCGGUACGGCCGCCACUCGCGAGAGAUUUAGUCUAGUCUUGACUGCAUU [Excl Tryptophan A V12]", "tested target": "K4 kissing-loop RNA reporter", "readout type": "apparent KD of K4 kissing-loop reporter", "units of measure": "nM", "measured result": 331}
{"query sequence": "GGACACUAGGAAACUAGUGUCUCAACUGAAGGAGCGUGAAUAGUCACAGGUAGGUCGCAGUUUGUUAGUGAUGUUGACAUGAGUU [#16 K4 Arginine A Same State]", "tested target": "K4 kissing-loop RNA reporter", "readout type": "apparent KD of K4 kissing-loop reporter", "units of measure": "nM", "measured result": 277}
{"query sequence": "AGACUACCACACUGUCAAUAGACAGUGAACUAGGAUAUGCUGAUAAGCAGAAGGAGUGAUGUUCCUUGGUAGUCAAUAAAAUAAU [FmnAX 13 U67]", "tested target": "K4 kissing-loop RNA reporter", "readout type": "apparent KD of K4 kissing-loop reporter", "units of measure": "nM", "measured result": 289}
{"query sequence": "GCUAUGGUAGGAAGGAGCGCUUAUUUAUUUUUAAGAGUGAUGUUCGUUAGUAGAUAUUUAAAGCAGGUAGGUCGCCUACUAUAGC [Arginine B K4 14]", "tested target": "K4 kissing-loop RNA reporter", "readout type": "apparent KD of K4 kissing-loop reporter", "units of measure": "nM", "measured result": 52}
{"query sequence": "AUUUGUUUAUGUGAUACCAGACUAAGCAGUGAUGUUGCUUUUAUUUUUGAAUUUUAAAUAGUCCCUUGGCAGCACUAUGUCUGUA [#05 K4 Theophylline B Same State]", "tested target": "K4 kissing-loop RNA reporter", "readout type": "apparent KD of K4 kissing-loop reporter", "units of measure": "nM", "measured result": 94.2}
{"query sequence": "AUUUUUUUGUCAGGAUAUUAGUGUGGGUUUGGUUUGUUAGUGAUGUUGAUAUUUGUUUUAUGUAUUUAAGAAGGGAUUUAGCGGU [zzdxemullin]", "tested target": "K4 kissing-loop RNA reporter", "readout type": "apparent KD of K4 kissing-loop reporter", "units of measure": "nM", "measured result": 285}
{"query sequence": "CUUAAGAUAUGAGUGAUGUUCAUGUCCGAAGGAGCGUGCGAAAGCACAGGUAGGUCGCGGAUGUGAGUGAUGUUCAUGUAAGCGA [KL-XArg-A12 #analogue]", "tested target": "K4 kissing-loop RNA reporter", "readout type": "apparent KD of K4 kissing-loop reporter", "units of measure": "nM", "measured result": 153}
{"query sequence": "UUUUAAAUAUCUGAUACCAGAGCGAAUAUAUGUAGUGAUGUUAUAUACAAAAUAAAUAAGCUCCCUUGGCAGCAGUAUUAAUUUU [Astros-ExyTheB#?#ED14.66]", "tested target": "K4 kissing-loop RNA reporter", "readout type": "apparent KD of K4 kissing-loop reporter", "units of measure": "nM", "measured result": 968}
{"query sequence": "AAGCAGUCACCCGAAGCCAUCGAAGAUGGACGAGGACCGGUACGGCCGCCACUCGGAGUGAUGUUCCGAAGACUGCAAAAUAAAA", "tested target": "K4 kissing-loop RNA reporter", "readout type": "apparent KD of K4 kissing-loop reporter", "units of measure": "nM", "measured result": 412}
{"query sequence": "CGCAAUAUUACGGAGUGAUGUUUCGUAGUCCGAGGACCGGUACGGCCGCCACUCGCUGGCGUUGGCCCAUAGACCGACGGAAUCG [theeternabot_sameState_KL_Trp_A_39]", "tested target": "K4 kissing-loop RNA reporter", "readout type": "apparent KD of K4 kissing-loop reporter", "units of measure": "nM", "measured result": 238}
